B1: PhoQ; a variant is named by its letters at X, in order, P23837 (parent)
chain: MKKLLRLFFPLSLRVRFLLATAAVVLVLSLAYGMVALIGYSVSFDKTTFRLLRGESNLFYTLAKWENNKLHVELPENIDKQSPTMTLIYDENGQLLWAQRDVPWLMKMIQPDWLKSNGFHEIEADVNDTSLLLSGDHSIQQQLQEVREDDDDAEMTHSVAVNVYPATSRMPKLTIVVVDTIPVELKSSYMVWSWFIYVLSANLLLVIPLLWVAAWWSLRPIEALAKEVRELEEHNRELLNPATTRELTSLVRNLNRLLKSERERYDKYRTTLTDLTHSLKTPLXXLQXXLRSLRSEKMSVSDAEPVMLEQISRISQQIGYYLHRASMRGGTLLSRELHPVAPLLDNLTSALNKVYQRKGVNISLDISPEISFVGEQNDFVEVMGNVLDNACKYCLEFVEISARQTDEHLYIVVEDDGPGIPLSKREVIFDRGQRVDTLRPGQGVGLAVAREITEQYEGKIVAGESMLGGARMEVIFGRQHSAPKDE

# Variants of: B1
# assay_text: enrichment ratio after two sorts for PhoP signalling (ratio (wild type AVST 3.29)); higher = more functional
# condition_context: with PhoP (E. coli)
Whole data set: some 140,000 sequences, median “enrichment ratio after two sorts for PhoP signalling” near 0, cut for the highest 2% near 11. The entries come from a sample that favours the highest values as a whole.
Recorded measurements of enrichment ratio, one per entry
property: enrichment ratio

variant_spec | property | value_reported
YVFC | enrichment ratio | ≤ 0.25
KAYV | enrichment ratio | ≤ 0.25
QGMI | enrichment ratio | 19.9
ANMT | enrichment ratio | 12.2
NSCN | enrichment ratio | ≤ 0.25
EYTF | enrichment ratio | ≤ 0.25
QGSM | enrichment ratio | 9.07
QAYV | enrichment ratio | 12.6
QGYL | enrichment ratio | 9.62
GFRD | enrichment ratio | ≤ 0.25
YTLI | enrichment ratio | 12.8
AQMI | enrichment ratio | ≤ 0.25
QTYL | enrichment ratio | 12.8
ATLI | enrichment ratio | 15.7
TYTL | enrichment ratio | 15.2
LEFA | enrichment ratio | 1.62
VSML | enrichment ratio | 15.7
GIIK | enrichment ratio | ≤ 0.25
YYFP | enrichment ratio | ≤ 0.25
TRGD | enrichment ratio | ≤ 0.25
ATLS | enrichment ratio | 10.6
KATL | enrichment ratio | ≤ 0.25
VDHN | enrichment ratio | ≤ 0.25
VYML | enrichment ratio | ≤ 0.25
MQAE | enrichment ratio | ≤ 0.25
VFML | enrichment ratio | ≤ 0.25
QQWL | enrichment ratio | 11.7
QGWL | enrichment ratio | 2.29
FQML | enrichment ratio | 0.396
QRYN | enrichment ratio | ≤ 0.25
SPTL | enrichment ratio | ≤ 0.25
HMKN | enrichment ratio | ≤ 0.25
MQWI | enrichment ratio | 14.4
LRKP | enrichment ratio | ≤ 0.25
SFDK | enrichment ratio | ≤ 0.25
KKAT | enrichment ratio | ≤ 0.25
FSTL | enrichment ratio | 4.4
RNAL | enrichment ratio | ≤ 0.25
QQEL | enrichment ratio | ≤ 0.25
SVCN | enrichment ratio | 19.4
RAPP | enrichment ratio | ≤ 0.25
TAGI | enrichment ratio | 13.1
SSFG | enrichment ratio | ≤ 0.25
KGRD | enrichment ratio | ≤ 0.25
QTWL | enrichment ratio | 21.9
QQRL | enrichment ratio | ≤ 0.25
DSYR | enrichment ratio | ≤ 0.25
KMGN | enrichment ratio | ≤ 0.25
NQMT | enrichment ratio | ≤ 0.25
YVTW | enrichment ratio | ≤ 0.25
VIWQ | enrichment ratio | ≤ 0.25
LEFP | enrichment ratio | ≤ 0.25
QIWN | enrichment ratio | 27.2
KYLI | enrichment ratio | ≤ 0.25
MQAV | enrichment ratio | 18.4
RSML | enrichment ratio | ≤ 0.25
KPPG | enrichment ratio | ≤ 0.25
AFEF | enrichment ratio | ≤ 0.25
QTHF | enrichment ratio | 3.14
QRFP | enrichment ratio | ≤ 0.25
PDDN | enrichment ratio | ≤ 0.25
IRLA | enrichment ratio | 0.272
